# MEASURED_TARGET: Sodium- and chloride-dependent GABA transporter 1 (Mus musculus, UniProt P31648)
# ASSAY: Inhibition of GABA uptake at murine GAT-1 expressed in HEK293 cells
READOUT_NAME: pIC50
Reminder that pIC50 is minus the log10 of a molar concentration.

O=C(O)CCNCCOCCN1c2ccccc2Sc2ccccc21    4.45
O=C(O)CCNCCOCCN1c2ccccc2CCc2ccccc21    4.69
COc1ccc(C(/C=C/CN2CCC[C@H](C(=O)O)C2)(c2ccc(OC)cc2)c2ccc(OC)cc2)cc1    4.40

Specify measured pIC50 for CC(N)CC(=O)O (racemic) . 4.30

Specify measured pIC50 for CC(CC(=O)O)NCCOCCN1c2ccccc2C=Cc2ccccc21 (racemic) . 4.76

Specify measured pIC50 for CC(CC(=O)O)NCCOCCN1c2ccccc2Sc2ccccc21 (racemic) . 5.06

###

Listed here are molecules together with their documented pIC50.
# MEASURED_TARGET: GABA transporter 3 (Mus musculus)
# Sequence (P31649 whole entry): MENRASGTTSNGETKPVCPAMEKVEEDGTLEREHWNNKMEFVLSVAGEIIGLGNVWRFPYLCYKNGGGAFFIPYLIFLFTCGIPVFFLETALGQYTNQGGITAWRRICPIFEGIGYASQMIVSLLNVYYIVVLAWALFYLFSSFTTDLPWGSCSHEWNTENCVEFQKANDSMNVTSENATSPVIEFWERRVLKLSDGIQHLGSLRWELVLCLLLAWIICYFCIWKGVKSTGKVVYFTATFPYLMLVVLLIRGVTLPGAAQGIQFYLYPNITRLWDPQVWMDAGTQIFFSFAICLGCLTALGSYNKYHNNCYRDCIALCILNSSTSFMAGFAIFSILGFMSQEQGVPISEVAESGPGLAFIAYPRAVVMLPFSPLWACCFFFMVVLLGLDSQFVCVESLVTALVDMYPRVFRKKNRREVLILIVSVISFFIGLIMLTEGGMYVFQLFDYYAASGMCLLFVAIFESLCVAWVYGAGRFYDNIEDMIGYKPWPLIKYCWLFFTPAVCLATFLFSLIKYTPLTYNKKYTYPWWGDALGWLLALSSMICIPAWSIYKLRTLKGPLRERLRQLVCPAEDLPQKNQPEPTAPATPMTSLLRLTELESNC
# ASSAY: Inhibition of GABA uptake at murine GAT-2 expressed in HEK293 cells
Reminder that pIC50 is minus the log10 of a molar concentration.

COc1ccc(C(/C=C/CNC(C)CC(=O)O)(c2ccc(OC)cc2)c2ccc(OC)cc2)cc1 (racemic)    4.20
NCCC(=O)O    4.66
CC(CC(=O)O)NCCOCCN1c2ccccc2CCc2ccccc21 (racemic)    3.67

Specify measured pIC50 for CC(CC(=O)O)NCCOCCN1c2ccccc2Sc2ccccc21 (racemic) . 4.39

Specify measured pIC50 for CC(N)CC(=O)O (racemic) . 4.33

###

# MEASURED_TARGET: Sodium- and chloride-dependent GABA transporter 1 (Mus musculus)
# ASSAY: Inhibition of GABA uptake at murine GAT-1 expressed in HEK293 cells
READOUT_NAME: pIC50
Reminder that pIC50 is minus the log10 of a molar concentration.

NCCC(=O)O    2.55
CC(CC(=O)O)NCCC=C(c1ccccc1)c1ccccc1 (racemic)    5.34

Specify measured pIC50 for CC(CC(=O)O)NCCOCCN1c2ccccc2CCc2ccccc21 (racemic) . 4.88

###

# MEASURED_TARGET: GABA transporter 4 (Mus musculus)
# Sequence (P31650 whole entry): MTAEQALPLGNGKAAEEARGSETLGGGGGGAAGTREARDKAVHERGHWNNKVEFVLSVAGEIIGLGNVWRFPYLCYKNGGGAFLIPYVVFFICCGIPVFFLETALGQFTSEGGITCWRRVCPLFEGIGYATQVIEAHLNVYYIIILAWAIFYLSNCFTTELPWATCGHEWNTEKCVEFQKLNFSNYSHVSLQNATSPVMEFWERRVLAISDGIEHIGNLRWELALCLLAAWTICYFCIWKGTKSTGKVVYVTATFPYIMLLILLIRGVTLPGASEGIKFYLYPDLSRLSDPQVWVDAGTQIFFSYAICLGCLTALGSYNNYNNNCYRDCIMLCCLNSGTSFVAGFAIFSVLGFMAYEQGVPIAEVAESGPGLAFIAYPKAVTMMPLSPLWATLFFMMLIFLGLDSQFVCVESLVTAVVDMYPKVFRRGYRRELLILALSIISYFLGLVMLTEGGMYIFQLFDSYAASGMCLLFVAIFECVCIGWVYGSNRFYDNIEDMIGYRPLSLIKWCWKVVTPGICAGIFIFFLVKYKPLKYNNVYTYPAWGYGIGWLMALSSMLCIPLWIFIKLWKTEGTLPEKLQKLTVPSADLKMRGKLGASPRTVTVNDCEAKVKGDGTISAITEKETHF
# ASSAY: Inhibition of GABA uptake at murine GAT-3 expressed in HEK293 cells
Listed here are molecules together with their documented IC50.
# unit: µM | format: bare number

COc1ccc(C(/C=C/CNC(C)CC(=O)O)(c2ccc(OC)cc2)c2ccc(OC)cc2)cc1 (racemic)    60.3
COc1ccc(C(OCCNCCC(=O)O)(c2ccc(OC)cc2)c2ccc(OC)cc2)cc1    42.7
COc1ccc(C(OCCNC(C)CC(=O)O)(c2ccc(OC)cc2)c2ccc(OC)cc2)cc1 (racemic)    33.9
CC(N)CC(=O)O (racemic)    83.2
NCCC(=O)O [BETA-ALANINE]    34.7

Field: next molecule
Specify measured IC50 for CC(CC(=O)O)NCCOCCN1c2ccccc2CCc2ccccc21 (racemic) . 339

###

# MEASURED_TARGET: GABA transporter 2 (Mus musculus, UniProt P31651)
# Sequence (P31651 whole entry): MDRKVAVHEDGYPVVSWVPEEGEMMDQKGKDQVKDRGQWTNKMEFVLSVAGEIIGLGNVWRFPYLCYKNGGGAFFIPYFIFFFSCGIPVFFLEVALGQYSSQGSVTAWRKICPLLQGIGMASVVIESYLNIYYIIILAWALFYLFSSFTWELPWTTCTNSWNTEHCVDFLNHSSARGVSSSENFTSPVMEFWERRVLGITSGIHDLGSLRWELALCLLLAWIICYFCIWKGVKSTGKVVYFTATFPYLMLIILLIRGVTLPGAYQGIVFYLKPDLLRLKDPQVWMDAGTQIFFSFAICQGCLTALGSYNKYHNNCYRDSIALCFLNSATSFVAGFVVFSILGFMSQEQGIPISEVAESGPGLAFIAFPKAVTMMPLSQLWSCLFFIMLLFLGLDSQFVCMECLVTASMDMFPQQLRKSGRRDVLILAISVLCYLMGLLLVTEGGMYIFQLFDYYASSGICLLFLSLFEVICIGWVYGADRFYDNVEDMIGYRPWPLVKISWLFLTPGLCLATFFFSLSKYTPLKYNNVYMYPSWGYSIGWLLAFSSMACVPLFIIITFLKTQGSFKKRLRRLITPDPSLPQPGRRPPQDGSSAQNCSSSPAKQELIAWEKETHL
# ASSAY: Inhibition of GABA uptake at murine BGT-1 expressed in HEK293 cells
READOUT_NAME: IC50 (µM)
# unit: µM | format: bare number

The following compounds have reported results that may help.
COc1ccc(C(OCCN2CCC[C@H](C(=O)O)C2)(c2ccc(OC)cc2)c2ccc(OC)cc2)cc1    30.9
COc1ccc(C(/C=C/CN2CCC[C@H](C(=O)O)C2)(c2ccc(OC)cc2)c2ccc(OC)cc2)cc1    38
CC(N)CC(=O)O (racemic)    813

Field: next compound
Specify measured IC50 for `NCCC(=O)O` . 331

Data origin, for the record: ChEMBL document CHEMBL2401667
